- experimental_protocol: differential killing of epithelial or mesenchymal cells, primary screen, imaging, PC-3E GFP, TEM4-18 mCherry, co-culture (AID 1345086);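 further: cells exposed to compound for 72 h before imaging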
- test_settings: imaging cell counts, measured here: mesenchymal TEM4-18 mCherry cell survival, at 1 µM
Would you kindly list normalised cell number for each of these molecules?
Enter a number only.

Q: Tell me measured normalised cell number for O=c1[nH]c(=O)c2ccccc2o1 please.
Result: 0.88

Q: Let me know recorded normalised cell number for CCCC(CCC)C(=O)O , thanks.
Result: 1.15

Q: For O=c1ccc2ccc(O)cc2o1 , write its normalised cell number.
Result: 0.93

Q: Annotate the molecule CC(=O)N(CC(O)CN(C(C)=O)c1c(I)c(C(=O)NCC(O)CO)c(I)c(C(=O)NCC(O)CO)c1I)c1c(I)c(C(=O)NCC(O)CO)c(I)c(C(=O)NCC(O)CO)c1I (stereo unspecified) with its measured normalised cell number.
Result: 1.05

Q: Supply reported normalised cell number belonging to this molecule: CC(C)CCCC(C)[C@H]1CCC2C3CC=C4CC(=O)CC[C@]4(C)C3CC[C@@]21C (stereo partly specified)
Result: 0.88

Q: Provide measured normalised cell number value, entry: COC(=O)C1=C(C)NC(C)=C(C(=O)OC)C1c1ccccc1[N+](=O)[O-]
Result: 0.9

* * *

Please go through the items and note down their fluorescence ratio (interference).
- experimental_protocol: Cy5 fluorescence quenching or enhancement artefacts, artefact control for HCV NS3 helicase inhibitor project, biochemical, LOPAC1280 (AID 687037)
- test_settings: Cy5-DNA-NS3h complex fluorescence interference counterscreen
# answer = number (no unit)

Q: Give fluorescence ratio (interference) for the following compound: CC(C)NCC(O)COc1cccc2ccccc12 (centres undefined)
Result: 1

Q: Name the recorded fluorescence ratio (interference) of the item CNCCC(Oc1ccccc1OC)c1ccccc1 (centres undefined) in your answer.
Result: 0.9

Q: # return recorded fluorescence ratio (interference) for entry COC(=O)[C@H]1[C@H]2C[C@H]3c4[nH]c5ccccc5c4CCN3C[C@H]2CC[C@@H]1O
Result: 1

Q: Answer with the recorded fluorescence ratio (interference) for the compound listed here: CN(C)c1nc(N)c(C(=O)N=C(N)N)nc1Cl
Result: 1

Q: Look up fluorescence ratio (interference) of CCc1cccc(N(C)C(N)=Nc2cccc3ccccc23)c1 and report it.
Result: 1

Q: Provide measured fluorescence ratio (interference) value, entry: O=C(O)CP(=O)(O)O
Result: 0.9

Q: Assign fluorescence ratio (interference) to the following record: C[C@]12CC[C@@H]3c4ccc(O)cc4CC[C@H]3[C@@H]1CC[C@@H]2O
Result: 1

Q: Please give the documented fluorescence ratio (interference) of NCCCCN
Result: 0.9

Q: Please report fluorescence ratio (interference) for the following compound: Cn1c(=O)[nH]c2ncn(C)c2c1=O
Result: 1

Q: Complete the entry with fluorescence ratio (interference) for CN1CCN(C2Cc3ccccc3Sc3ccc(Cl)cc32)CC1 (centres undefined)
Result: 1

Q: Determine its reported fluorescence ratio (interference): COCC(=O)O[C@]1(CCN(C)CCCc2nc3ccccc3[nH]2)CCc2cc(F)ccc2[C@@H]1C(C)C
Result: 1

Q: Give fluorescence ratio (interference) for COc1cc(NS(C)(=O)=O)ccc1Nc1c2ccccc2nc2ccccc12
Result: 0.9

Q: Return fluorescence ratio (interference) for the following compound: NCCCCN=C(N)N
Result: 1

Q: Please indicate fluorescence ratio (interference) recorded for OC(CCN1CCCCC1)(c1ccccc1)C1CC2C=CC1C2 (centres undefined)
Result: 1

Q: Determine its reported fluorescence ratio (interference): C=C[C@H]1CN2CCC1C[C@@H]2[C@@H](O)c1ccnc2ccc(OC)cc12 (some centres undefined)
Result: 1

Q: Indicate its recorded fluorescence ratio (interference); the compound in question is NCCCCC(=O)O
Result: 0.9

Q: Give a short answer stating reported fluorescence ratio (interference) for C[C@]12CCC(=O)C=C1CC[C@@H]1[C@@H]2CC[C@@]2(C)[C@H]1CC[C@]2(O)C(=O)CO .
Result: 1

Q: Fill in reported fluorescence ratio (interference) for this entry: COc1cc2c(c(OC)c1OC)-c1ccc(OC)c(=O)cc1[C@@H](NC(C)=O)CC2
Result: 1

Q: Please give measured fluorescence ratio (interference) of the following entry: OCCN1CCN(CC/C=C2/c3ccccc3Sc3ccc(C(F)(F)F)cc32)CC1
Result: 1

Q: Give fluorescence ratio (interference) for the following compound: CCCC(CCC)C(=O)O
Result: 1

Q: Write down fluorescence ratio (interference) measured for item Cn1ccc2cc3c(cc21)CCN3C(=O)Nc1cccnc1
Result: 0.9

Q: Quick one: give measured fluorescence ratio (interference) for Cc1cc(C)c(/C=C2\C(=O)Nc3ccccc32)[nH]1
Result: 1

Q: Provide one value: measured fluorescence ratio (interference) of Oc1cc(O)c2c(c1)O[C@H](c1ccc(O)c(O)c1)[C@@H](O)C2
Result: 1

Q: Fill in reported fluorescence ratio (interference) for this entry: Cc1ccc(N(CC2=NCCN2)c2cccc(O)c2)cc1
Result: 0.9

Q: Note down fluorescence ratio (interference) recorded for CN1C(=O)CC[C@H]1c1cccnc1
Result: 1

Q: State, in one line, measured fluorescence ratio (interference) of CCCn1c(=O)c2[nH]c(C3CCCC3)nc2n(CCC)c1=O
Result: 1

Q: Please give measured fluorescence ratio (interference) of the following entry: O=C(CCCN1CCC(O)(c2cccc(C(F)(F)F)c2)CC1)c1ccc(F)cc1
Result: 1

Q: In one line, give reported fluorescence ratio (interference) of the entry CNCCCC1c2ccccc2C=Cc2ccccc21 .
Result: 0.9

Q: Return fluorescence ratio (interference) for the following compound: C#CCN(C)CCCOc1ccc(Cl)cc1Cl
Result: 1

Q: Using the record for COCCOC(=O)C1=C(C)NC(C)=C(C(=O)OC/C=C/c2ccccc2)C1c1cccc([N+](=O)[O-])c1 (centres undefined) , state its measured fluorescence ratio (interference).
Result: 1

Q: Answer with reported fluorescence ratio (interference) of NC(=NCc1ccccc1)NC(=O)c1nc(Cl)c(N)nc1N
Result: 1

Q: Provide only the value of recorded fluorescence ratio (interference) for O=C(/C=C/c1ccc(O)c(O)c1)OCCc1ccccc1
Result: 1

Q: Input CCN(CC)C(=O)c1ccc(O)c(OC)c1 , output reported fluorescence ratio (interference).
Result: 1

Q: Retrieve fluorescence ratio (interference) measured for C1COC(NC(C2CC2)C2CC2)=N1 and print it.
Result: 1

Q: Report fluorescence ratio (interference) for CCCC1O[C@@H]2C[C@H]3[C@@H]4CCC5=CC(=O)C=C[C@]5(C)[C@H]4[C@@H](O)C[C@]3(C)[C@]2(C(=O)CO)O1 (some centres undefined)
Result: 0.9

Q: Output measured fluorescence ratio (interference) for this item: CN(C)C/C=C(/c1ccc(Br)cc1)c1cccnc1
Result: 1

Q: Give the reported fluorescence ratio (interference) for this compound. CC#C[C@]1(O)CC[C@H]2[C@@H]3CCC4=CC(=O)CCC4=C3[C@@H](c3ccc(N(C)C)cc3)C[C@@]21C
Result: 0.9

Q: Supply recorded fluorescence ratio (interference) for CC(C)(Oc1ccc(C2CC2(Cl)Cl)cc1)C(=O)O (centres undefined) here.
Result: 1

Q: Dear colleague, please send me the reported fluorescence ratio (interference) for CCn1ccnc1CC1COc2ccccc2O1 (centres undefined) when you can.
Result: 1

Q: Please indicate fluorescence ratio (interference) recorded for O=C(/C=C/c1ccc(O)cc1)c1ccc(O)cc1O
Result: 0.9

Q: Please look at this compound and report its fluorescence ratio (interference): CN(C)CCC(c1ccc(Cl)cc1)c1ccccn1 (centres undefined)
Result: 0.9

Q: Fill in fluorescence ratio (interference) for record NC(=O)CC[C@H](N)C(=O)O
Result: 1

Q: For the compound CC(C)(C)c1ccc(C(O)CCCN2CCC(C(O)(c3ccccc3)c3ccccc3)CC2)cc1 (centres undefined) , report fluorescence ratio (interference).
Result: 0.9

Q: Tell me measured fluorescence ratio (interference) for NCCSSCCN please.
Result: 1

Q: State its fluorescence ratio (interference): CC(=O)[C@H]1CC[C@H]2[C@@H]3CCC4=CC(=O)CC[C@]4(C)[C@H]3CC[C@]12C
Result: 0.9

Q: Specify fluorescence ratio (interference) for C=C(C)C1CC=C(C(=O)O)CC1 (centres undefined) and stop.
Result: 0.9

Q: Fill in reported fluorescence ratio (interference) for this entry: NC1=NCC2c3ccccc3Cc3ccccc3N12 (centres undefined)
Result: 1

Q: Dear colleague, please send me the reported fluorescence ratio (interference) for O=C(O)/C=C/c1ccc(O)c(O)c1 when you can.
Result: 1

Q: Please indicate fluorescence ratio (interference) recorded for FC(F)(F)c1ccccc1-n1ccnc1
Result: 1
